Reference source: patent US12691070B2

- System: RAW 264.7 cells
- measurement.description: In vitro toxicity (CellTiter-Glo cell viability), RAW 264.7;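 further: percent of untreated cells luminescence signal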
- Assay type: cell-based
- test.settings: cirRNA (SEQ ID NO: 1) LNPs; RAW 264.7 cells
- Experimental: RAW 264.7 and Hep G2 cells were transfected with 1 μg/mL RNA-LNPs. At 72 hours post transfection, cell viability was determined with the CellTiter-Glo® reagent kit, according to the kit protocol, measured by a luminometer. The cell viability was calculated according to the following formula: […]
observed.property: In vitro Viability RAW (%)
// note: answer is a bare numeric in %

Request: Please tell me: In vitro Viability RAW of CCCCCCCCCCC(CCCCCCCC)COC(=O)CCCCCN(CCCCCC(=O)OCC(CCCCCCCC)CCCCCCCCCC)CCCOC(=O)NCCN1CCN(C)CC1 (stereo not shown) , system RAW 264.7 cells?
Response: 90

Request: // lookup In vitro Viability RAW | system=RAW 264.7 cells | key= CCCCCCCCCC(=O)OCCCCCCCN(CCCCCCCCOC(=O)C(CCCCCC)CCCCCCCC)CCCOC(=O)NCc1ncc[nH]1 (stereo not shown)
Response: 86

Request: Form: Entry = `CCCCCCCCCC(=O)OCCCCCCCCN(CCCCCCCCOC(=O)CCCCCCCCC)CCOC(=O)NCCN1CCCC1` | System = RAW 264.7 cells | In vitro Viability RAW = ____
Response: 95

Request: RAW 264.7 cells / In vitro Viability RAW / CCCCCCCCC(CCCCCC)C(=O)OCCCCCCCCN(CCCCCCCCOC(=O)C(CCCCCC)CCCCCCCC)CCCNCCN(C)C (stereo not shown) : value?
Response: 88

Request: Recorded In vitro Viability RAW for CCCCCCCCC(CCCCCCCC)OC(=O)CCCCCCCN(CCCCCCCCOC(=O)C(CCCCCC)CCCCCCCC)CCCOC(=O)NCCc1ncc[nH]1 (stereo not shown) with RAW 264.7 cells, please?
Response: 87

Request: Requested read-out In vitro Viability RAW, target or system RAW 264.7 cells, entry `CCCCCCCCCC(=O)OCCCCCCCCN(CCCCCCCCOC(=O)CCCCCCCCC)CCOC(=O)NCc1ncc[nH]1`
Response: 91

Request: Item: `CCCCC/C=C\C/C=C\CCCCCCCCN(CCCCCCCC/C=C\C/C=C\CCCCC)CCOC(=O)NCc1ccncc1` Test system: RAW 264.7 cells Read-out: In vitro Viability RAW Value: ?
Response: 108

---

- Tested on: MCP-I
- measurement.description: MCP-I cytokine elevation in serum
- Format: in vivo
- test.settings: cirRNA (SEQ ID NO: 1) LNPs, mice, 2 hours
- Experimental: 6-8 week old, female BALB/C mice were injected with 0.5 mg*kg-1 of RNA LNPs by intravenous injection. At 2 and 24 hours post injection, animals were bled and sera concentrations of MCP-I were determined by an immunoassay (Luminex).
observed.property: MCP-I in Sera 2 hours After 0.5 MPK Injection (pg/mL)
Provide only the numeric value, understood in pg/mL.

Request: Which value of MCP-I in Sera 2 hours After 0.5 MPK Injection has been reported for CCCCC/C=C\CCOC(=O)CCCCCN(CCCCCC(=O)OCC(CCCCCCCC)CCCCCCCCCC)CCOC(=O)NCCN1CCCCC1 (centres unmarked) [Lipid 245] in the records?
Response: 2543.33

Request: Item CCCCCCCCC(CCCCCC)C(=O)OCCCCCCCCN(CCCCCCCCOC(=O)C(CCCCCC)CCCCCCCC)CCCOC(=O)NCCCN(CC)CC (centres unmarked) [Lipid 376] has what recorded MCP-I in Sera 2 hours After 0.5 MPK Injection?
Response: 6397.67

Request: Could you share which MCP-I in Sera 2 hours After 0.5 MPK Injection value was measured for CCCCC/C=C\C/C=C\CCCCCCCCN(CCCCCCCC(=O)OC(CCCCCCCC)CCCCCCCC)CCOC(=O)NCCN1CCCC1 [Lipid 128] ?
Response: 6355.24

Request: Record request: MCP-I in Sera 2 hours After 0.5 MPK Injection value, item CCCCCCCCC(CCCCCCCC)OC(=O)CCCCCCCN(CCCCCCCCOC(=O)C(CCCCCC)CCCCCCCC)CCCOC(=O)NCCN(C)C (centres unmarked) [Lipid 344]
Response: 7150.00

Request: GET /values?readout=MCP-I in Sera 2 hours After 0.5 MPK Injection&item= CCCCC/C=C\C/C=C\CCCCCCCCN(CCCCCCCC/C=C\CCCCCCCC)CCOC(=O)NCc1ncc[nH]1 [Lipid 68]
Response: 129.34

Request: # MCP-I in Sera 2 hours After 0.5 MPK Injection lookup, item CCCCCCCCCCC(CCCCCCCC)COC(=O)CCCCCN(CCCCCC(=O)OCC(CCCCCCCC)CCCCCCCCCC)CCOC(=O)NCCN(C)C (centres unmarked) [Lipid 170]
Response: 1322.04

Request: Returns the measured MCP-I in Sera 2 hours After 0.5 MPK Injection for the input compound. Input: CCCCCCCCCCC(CCCCCCCC)COC(=O)CCCCCN(CCCCCC(=O)OCC(CCCCCCCC)CCCCCCCCCC)CCCOC(=O)NCCN1CCCC1 (centres unmarked) [Lipid 369]
Response: 6463.00

Request: Item CCCCCCCCCC(=O)OCCCCCCCN(CCCCCCCCOC(=O)C(CCCCCC)CCCCCCCC)CCOC(=O)NCCN(C)C (centres unmarked) [Lipid 197] has what recorded MCP-I in Sera 2 hours After 0.5 MPK Injection?
Response: 1958.67

Request: Find the recorded MCP-I in Sera 2 hours After 0.5 MPK Injection belonging to CCCCCCCCC(CCCCCC)C(=O)OCCCCCCCCN(CCCCCCCCOC(=O)C(CCCCCC)CCCCCCCC)CCCOC(=O)NCCN1CCCCCC1 (centres unmarked) [Lipid 383] and report it.
Response: 5759.00

Request: Which MCP-I in Sera 2 hours After 0.5 MPK Injection value is on record for CCCCCCCCC(CCCCCCCC)OC(=O)CCCCCCCN(CCCCCCCCOC(=O)C(CCCCCC)CCCCCCCC)CCOC(=O)NCCN1CCCC1 (centres unmarked) [Lipid 148] ?
Response: 6709.61

Request: Name the recorded MCP-I in Sera 2 hours After 0.5 MPK Injection for CCCCC/C=C\C/C=C\CCCCCCCCN(CCCCCCCC(=O)OC(CCCCCCCC)CCCCCCCC)CCCOC(=O)NCc1ncc[nH]1 [Lipid 271] .
Response: 1986.67

Request: Item CCCCCCCCC(CCCCCC)C(=O)OCCCCCCCCN(CCCCCCCCOC(=O)C(CCCCCC)CCCCCCCC)CCCOC(=O)NCCN1CCCCC1 (centres unmarked) [Lipid 380] has what recorded MCP-I in Sera 2 hours After 0.5 MPK Injection?
Response: 1168.73

Request: Name the reported MCP-I in Sera 2 hours After 0.5 MPK Injection value associated with the compound CCCCC/C=C\C/C=C\CCCCCCCCN(CCCCCCCC(=O)OC(CCCCCCCC)CCCCCCCC)CCCOC(=O)NCCCn1ccnc1 [Lipid 276]
Response: 1659.21

Request: Which MCP-I in Sera 2 hours After 0.5 MPK Injection is reported for this compound? CCCCC/C=C\C/C=C\CCCCCCCCN(CCCCCC(=O)OCCCCCCCCCCC)CCOC(=O)NCc1ncc[nH]1 [Lipid 90]
Response: 153.05

Request: Name the recorded MCP-I in Sera 2 hours After 0.5 MPK Injection for CCCCC/C=C\C/C=C\CCCCCCCCN(CCCCCCCC(=O)OC(CCCCCCCC)CCCCCCCC)CCOC(=O)NCCN1CCCCC1 [Lipid 127] .
Response: 301.91

Request: # get_value(readout='MCP-I in Sera 2 hours After 0.5 MPK Injection', item= CCCCCCCCCC(=O)OCCCCCCCN(CCCCCCCCOC(=O)C(CCCCCC)CCCCCCCC)CCOC(=O)NCCN1CCCC1 (centres unmarked) [Lipid 195] )
Response: 2643.00

Request: Could you share which MCP-I in Sera 2 hours After 0.5 MPK Injection value was measured for CCCCCCCCC(CCCCCC)C(=O)OCCCCCCCCN(CCCCCCCCOC(=O)C(CCCCCC)CCCCCCCC)CCOC(=O)NCCN(C)C (centres unmarked) [Lipid 6] ?
Response: 7009.50

Request: Any idea what MCP-I in Sera 2 hours After 0.5 MPK Injection was measured for CCCCCCCCCCCOC(=O)CCCCCN(CCCCCCCC(=O)OC(CCCCCCCC)CCCCCCCC)CCOC(=O)NCCN1CCCCC1 [Lipid 165] ?
Response: 127.19

Request: Which value of MCP-I in Sera 2 hours After 0.5 MPK Injection has been reported for CCCCCCCCC(CCCCCCCC)OC(=O)CCCCCCCN(CCCCCCCCOC(=O)C(CCCCCC)CCCCCCCC)CCCOC(=O)NCCN1CCCCC1 (centres unmarked) [Lipid 351] in the records?
Response: 3172.67

Request: Look at this compound and give its reported MCP-I in Sera 2 hours After 0.5 MPK Injection. CCCCCCCCCCC(CCCCCCCC)COC(=O)CCCCCN(CCCCCCCCOC(=O)C(CCCCCC)CCCCCCCC)CCOC(=O)NCCN(C)C (centres unmarked) [Lipid 51]
Response: 3296.20

Request: Look at this compound and give its reported MCP-I in Sera 2 hours After 0.5 MPK Injection. CCCCC/C=C\C/C=C\CCCCCCCCN(CCCCCCCC(=O)OC(CCCCCCCC)CCCCCCCC)CCOC(=O)NCCCN(CC)CC [Lipid 131]
Response: 5003.82

Request: State the recorded MCP-I in Sera 2 hours After 0.5 MPK Injection for this entry: CCCCCCCCC(CCCCCCCC)OC(=O)CCCCCCCN(CCCCCCCCOC(=O)C(CCCCCC)CCCCCCCC)CCCOC(=O)NCCN1CCCCCC1 (centres unmarked) [Lipid 354]
Response: 5469.33

Request: Need MCP-I in Sera 2 hours After 0.5 MPK Injection of CCCCC/C=C\C/C=C\CCCCCCCCN(CCCCCCCC(=O)OC(CCCCCCCC)CCCCCCCC)CCOC(=O)NCc1ncc[nH]1 [Lipid 132] , thanks.
Response: 28.53

Request: Could you tell me which MCP-I in Sera 2 hours After 0.5 MPK Injection is on file for CCCCCCCCCCC(CCCCCCCC)COC(=O)CCCCCN(CCCCCC(=O)OCC(CCCCCCCC)CCCCCCCCCC)CCOC(=O)NCCN1CCCC1 (centres unmarked) [Lipid 168] ?
Response: 4607.51

Request: Query (compound): CCCCCCCCC(CCCCCCCC)OC(=O)CCCCCCCN(CCCCCCCCOC(=O)C(CCCCCC)CCCCCCCC)CCCOC(=O)NCCCN(C)C (centres unmarked) [Lipid 348] ; field requested: MCP-I in Sera 2 hours After 0.5 MPK Injection
Response: 1894.33

Request: MCP-I in Sera 2 hours After 0.5 MPK Injection for CCCCC/C=C\C/C=C\CCCCCCCCN(CCCCCCCC(=O)OC(CCCCCCCC)CCCCCCCC)CCOC(=O)NCCN(C)C [Lipid 129] ?
Response: 3830.40
